Tested on: Plasmodium falciparum
Assay: Primary screen in NF54 nanoGlo assay, in single point, at 2uM, 72h
Assay type: functional, Erythrocyte
Conditions: timepoint 72 hour
Hit rate of the full screen: of about 150,000 compounds, about 540 (0.36%) showed an effect of 50% or more. Only a selection was taken, and strong results are over-represented in it overall.

[
  {
    "compound": "CC(C)(C)OC(=O)N1CCN(c2nnc(NC(=O)c3c(F)cccc3F)[nH]2)CC1",
    "% Inhibition (%)": -14
  },
  {
    "compound": "Cc1ccccc1-n1c(=O)c2sccc2n(CC(=O)Nc2ccc(N(C)C)cc2)c1=O",
    "% Inhibition (%)": 2
  },
  {
    "compound": "CCN1CCN(c2cccc(NC(=O)c3ccc4[nH]c5ccccc5c(=O)c4c3)c2)CC1",
    "% Inhibition (%)": 92
  },
  {
    "compound": "CCN1CCN(c2cccc(NC(=O)c3cc(F)cc4c(=O)c5cc(F)ccc5[nH]c34)c2)CC1",
    "% Inhibition (%)": 95
  },
  {
    "compound": "Cc1cn2nc(C(=O)NCCc3ccc(S(N)(=O)=O)cc3)cc2c(=O)[nH]1",
    "% Inhibition (%)": -18
  },
  {
    "compound": "NC(=O)CO[C@H]1CCOC[C@H]1NC(=O)c1ccc(Oc2ccccc2)o1",
    "% Inhibition (%)": 4
  },
  {
    "compound": "Cc1ccc(C(=O)Nc2cccc(N3CCCCCC3)c2)c(=O)[nH]1",
    "% Inhibition (%)": -12
  },
  {
    "compound": "Cc1ccc(C)c(-c2cnn(CC3CC3)c2)c1",
    "% Inhibition (%)": 0
  },
  {
    "compound": "CC(CCO)C1(CNC(=O)NCC2CCCO2)CCC1 (centres undefined)",
    "% Inhibition (%)": -7
  },
  {
    "compound": "CN(Cc1ccc2ccn(C)c2c1)C[C@H]1CCCCO1",
    "% Inhibition (%)": -2
  },
  {
    "compound": "CN(C(=O)C(C)(C)Nc1ncc(C(F)(F)F)cc1Cl)c1ccc(Cl)cc1",
    "% Inhibition (%)": 59
  },
  {
    "compound": "CC(Nc1ccc(C#N)nc1)C1CCCOC1 (centres undefined)",
    "% Inhibition (%)": 1
  },
  {
    "compound": "CN(C)Cc1ccc(NC(=O)c2cc(F)cc3c(=O)c4cc(F)ccc4[nH]c23)cc1",
    "% Inhibition (%)": 77
  },
  {
    "compound": "CCCN(C(=O)Nc1cc(Cl)ccc1OC)c1nc(-c2ccc(C3CCCCC3)cc2)cs1",
    "% Inhibition (%)": -14
  },
  {
    "compound": "CC1CC(C(=O)N[C@@H](C)c2cnccn2)CC(C)(C)C1 (some centres undefined)",
    "% Inhibition (%)": 8
  },
  {
    "compound": "NC(=O)c1ccccc1NC(=O)C1CCN(c2cc(N3CCCC3)ncn2)CC1",
    "% Inhibition (%)": 7
  },
  {
    "compound": "COC[C@H]1CCCCN1C(=O)c1ccnc(C2CCCC2)n1",
    "% Inhibition (%)": 7
  },
  {
    "compound": "CC(C)CC[C@@H](CCN1CCCC1)c1ccc(OC(C)C)cc1",
    "% Inhibition (%)": 2
  },
  {
    "compound": "Oc1nc(-c2cccc(C(F)(F)F)c2)sc1-c1ccccc1",
    "% Inhibition (%)": 59
  },
  {
    "compound": "O=C(NC1CCCC1)[C@@H](c1ccccc1)N1CCS(=O)(=O)CC1",
    "% Inhibition (%)": 7
  },
  {
    "compound": "Oc1nc(-c2cccnc2)sc1-c1ccccc1",
    "% Inhibition (%)": -2
  },
  {
    "compound": "CCCc1cnc(C)nc1-c1ccnc2c1ccn2C",
    "% Inhibition (%)": -4
  },
  {
    "compound": "C[C@H](Nc1ncc(C(F)(F)F)cc1Cl)C(N)=O",
    "% Inhibition (%)": -10
  },
  {
    "compound": "CN1CCC(NCC[C@@H](Cc2ccccc2Cl)c2ccc(Cl)cc2)CC1",
    "% Inhibition (%)": 72
  },
  {
    "compound": "CC1CC(C(=O)Nc2[nH]c(=O)ncc2F)CC(C)(C)C1 (centres undefined)",
    "% Inhibition (%)": 92
  },
  {
    "compound": "CCN1CCN(c2c(CN(C(=O)Nc3cccc(F)c3)C(C)C)c(C)nn2-c2cccc(F)c2)CC1",
    "% Inhibition (%)": 3
  },
  {
    "compound": "COC1(C)CCN(C(=O)c2ccon2)CC1",
    "% Inhibition (%)": -4
  },
  {
    "compound": "CC1CC(C(=O)NCCCn2cn[nH]c2=O)CC(C)(C)C1 (centres undefined)",
    "% Inhibition (%)": 0
  },
  {
    "compound": "CC(=O)C(=CNc1ncc(C(F)(F)F)cc1Cl)C(C)=O",
    "% Inhibition (%)": -6
  },
  {
    "compound": "CC(C)CCn1ccc(NC2CCN(C)CC2)n1",
    "% Inhibition (%)": -15
  },
  {
    "compound": "CN1CCC(NCCOCc2ccc(Cl)cc2Cl)CC1",
    "% Inhibition (%)": 0
  },
  {
    "compound": "CC(C)CCn1nnnc1[C@]1(N(C)C)CCCN(C(=O)CN2CCOCC2)C1",
    "% Inhibition (%)": 2
  },
  {
    "compound": "Cc1cc(C)cc(-n2c(=O)c3sccc3n(CC(=O)Nc3ccc(N(C)C)cc3)c2=O)c1",
    "% Inhibition (%)": 51
  },
  {
    "compound": "Cn1cccc1CN[C@H]1CCOc2ccc(F)cc21",
    "% Inhibition (%)": -10
  },
  {
    "compound": "CC(CNC(=O)C(=O)NC(C)CCc1ccccc1)Cc1ccccc1 (centres undefined)",
    "% Inhibition (%)": -11
  },
  {
    "compound": "CCOc1ccccc1C(=O)N1CCC[C@](c2nnnn2CCC(C)C)(N(C)C)C1",
    "% Inhibition (%)": -2
  },
  {
    "compound": "COc1ccc(-c2nc3ccc(Cc4ccc5nc(-c6ccc(OC)cc6)c(-c6ccc(OC)cc6)nc5c4)cc3nc2-c2ccc(OC)cc2)cc1",
    "% Inhibition (%)": 11
  },
  {
    "compound": "CCN1CCN(c2ccc(C(=O)Nc3cccc(-c4ccc5c(c4)CCO5)c3)cc2F)CC1",
    "% Inhibition (%)": 18
  },
  {
    "compound": "CC(C)(N)c1ccc(Cl)c(Cl)c1",
    "% Inhibition (%)": -9
  },
  {
    "compound": "COc1ccc(NCC(=O)Nc2cc(C(F)(F)F)cc(NC(=O)CNc3ccc(OC)cc3)c2Cl)cc1",
    "% Inhibition (%)": -10
  },
  {
    "compound": "CC(Cc1ccccc1Cl)C(=O)NC1CCN(C(=O)Nc2ccccc2)C1 (centres undefined)",
    "% Inhibition (%)": -1
  },
  {
    "compound": "Cc1ccc(N2C[C@H](C(=O)O)[C@@H](C(C)C)C2)nn1",
    "% Inhibition (%)": -13
  },
  {
    "compound": "O[C@@H](CN1CCC(c2ccn[nH]2)CC1)C(F)(F)F",
    "% Inhibition (%)": 27
  },
  {
    "compound": "NC(=O)c1ccccc1NC(=O)C1CCN(c2cc(C3CC3)ncn2)CC1",
    "% Inhibition (%)": 57
  }
]

* * *

System: Plasmodium falciparum
Experiment: Primary screen in NF54 nanoGlo assay, in single point, at 2uM, 72h; a lower Z score goes with more inhibition
Assay type: functional, Erythrocyte
Details: timepoint 72 hour
In all, about 150,000 compounds went through this assay and about 540 (0.36%) showed an effect of 50% or more. The list comes from a sample in which strong results are over-represented; it also holds close analogues and randomly drawn compounds.
The following compounds are shown together with reported Z score values.

[
  {
    "compound": "Cc1nc(CNC(=O)c2nc3ccccc3[nH]c2=O)cs1",
    "Z score": -0.75
  },
  {
    "compound": "NC(=O)[C@@H]1CN(Cc2ncc(C(F)(F)F)s2)CCO1",
    "Z score": 1.56
  },
  {
    "compound": "OC1(c2csc(CN3CCOCC3)n2)CCN(Cc2ccccn2)CC1",
    "Z score": 1.39
  },
  {
    "compound": "CC(C)Oc1ccc(-c2cc(C(F)(F)F)n3nc(-c4ccccc4)c(-c4ccccc4)c3n2)cc1",
    "Z score": 1.87
  },
  {
    "compound": "O=S(=O)(c1ccc(F)c(Cl)c1)N1CC[C@H](Oc2ccncc2Cl)C1",
    "Z score": -13.57
  },
  {
    "compound": "CN1C[C@]2(CCCN(Cc3ccc(OCC(=O)c4ccccc4)cc3)C2)CCC1=O",
    "Z score": 0.67
  },
  {
    "compound": "CCOc1ccc([C@@]2(O)CN3CCCCCC3=[N+]2c2ccc(C)cc2)cc1",
    "Z score": -0.19
  },
  {
    "compound": "CCOc1ccc([C@@]2(O)CN3C=CC=CC3=[N+]2c2ccccc2)cc1",
    "Z score": 4.59
  },
  {
    "compound": "CCc1nn(C)c(OC)c1CNC(=O)N[C@@H]1Cc2ccccc2[C@H]1O",
    "Z score": 1.27
  },
  {
    "compound": "CCc1nc(C#N)cc(N2CCC[C@@H]2CS(C)(=O)=O)n1",
    "Z score": 0.21
  },
  {
    "compound": "COc1cc2ccc1OCC(=O)N[C@@H](C)C(=O)N(C)CCCCN(C(=O)c1cc(Cl)cn1C)CCCNC2=O",
    "Z score": 3.05
  },
  {
    "compound": "CN1C(=O)[C@@H]2CCCCN2c2ccc(C(=O)N3CCN(C(=O)c4ccco4)CC3)cc21",
    "Z score": -0.14
  },
  {
    "compound": "CCOc1ccc(-c2cn(Cc3ccncc3)nn2)cc1Cl",
    "Z score": 2.05
  },
  {
    "compound": "CC(NCC1CS(=O)(=O)c2ccccc21)[C@@H]1C[C@H]1C1CC1 (some centres not stated)",
    "Z score": 0.41
  },
  {
    "compound": "CCC(CC)n1nc(C(=O)NCC23CCCN2CCC3)cc1C",
    "Z score": 2.13
  },
  {
    "compound": "Cc1cc(C)c(CNC(=O)c2cnn(C)c2C)c(=O)[nH]1",
    "Z score": 1.13
  },
  {
    "compound": "Cn1c(-c2ccc(Br)cc2)c[n+](CC(=O)c2ccc(Br)cc2)c1N",
    "Z score": 0.35
  },
  {
    "compound": "O=C(Nc1cccc(CNc2nc3ccccc3o2)c1)c1ccccn1",
    "Z score": 1.61
  },
  {
    "compound": "Cc1nc2cc(NC(=O)c3ccccn3)ccc2o1",
    "Z score": -1.99
  },
  {
    "compound": "CNC(=O)[C@@H]1CCCN1C(=O)CNC(=O)c1cccc2c1OCC2",
    "Z score": 0.71
  },
  {
    "compound": "Cc1c(F)cccc1C(=O)N(C)Cc1cc(C2CC2)on1",
    "Z score": -0.14
  },
  {
    "compound": "COc1ccc(C(=O)C[n+]2cc(-c3ccc(OC)cc3)n3c2CCCC3)cc1",
    "Z score": -8.89
  }
]

Source: ChEMBL document CHEMBL4888484
